Record form. Attribute: TGI. Fill in for each entry.
- Test system: OVCAR-5 ovarian
- experimental_details: NCI tumour cell line growth inhibition, 48 h

Examples with their reported TGI follow.
{"columns": ["compound", "tested_on", "TGI"],
 "data": [
  ["COc1ccc2c(c1OC)-c1c(c3ccc([N+](=O)[O-])cc3c(=O)n1CCCBr)C2=O", "OVCAR-5 ovarian", "> 100 µM"],
  ["O=S(=O)(c1ccc(-c2nnc(-c3ccc(F)cc3)o2)cc1)c1ccc(-c2nnc(-c3ccc(F)cc3)o2)cc1", "OVCAR-5 ovarian", "> 100 µM"],
  ["CC(=O)NC(CCCCN)C(=O)NCc1ccccc1 (centres undefined)", "OVCAR-5 ovarian", "> 100 µM"]
]}

For the 7 compounds below, give their TGI values.
1. COc1ccc(OC(C(=O)O)C(C)C)c2c1CCCC2=O (centres undefined)
2. COC(=O)CCc1c(Cc2ccc[nH]2)[nH]c(C(=O)OCc2ccccc2)c1C
3. C=C(C)C1CC/C(C)=C/CC[C@]2(C)O[C@@H]2CCC2=CC1OC2=O (some centres undefined)
4. [O-][n+]1c(CN2CCCCC2)nc2cccc3c2c1-c1ccccc1-3
5. O=c1nc(-c2ccccc2)cc(CC(O)c2ccc(Cl)c(Cl)c2)[nH]1 (centres undefined)
6. CCOC(=O)CN(Cn1cncn1)Cn1cncn1
7. CCSCN(C)c1nc(N(C)C)nc(N(C)C)n1

1. > 100 µM
2. > 100 µM
3. > 100 µM
4. 50.5 µM
5. 82 µM
6. > 100 µM
7. > 100 µM

Provide each entry's TGI from the list below.
1. NC(=O)[C@@H](CC1CC1)[C@@H](CCC(F)(F)F)C(=O)N[C@H]1N=C(c2ccccc2)c2cccc(F)c2NC1=O
2. Cc1c(C(=O)/C=C/C=C/c2ccccc2)[n+](=O)c2ccccc2n1[O-]
3. Cc1nc2ccc(Br)cc2c(=O)n1-c1ccc(NC2OCC(O)C(O)C2O)cc1 (centres undefined)
4. CSc1ncc(Br)c(Sc2nc(N)nc3nc[nH]c23)n1
5. CCCC1C(=O)Nc2cccc3ncn(c23)C1=O (centres undefined)
6. Cc1cc(C)c2c(n1)sc1c(N)ncnc12
7. C#CCNC(=S)N/N=C(\C)c1ccccn1

["> 100 µM", "> 100 µM", "> 100 µM", "> 100 µM", "> 100 µM", "> 25 µM", "> 100 µM"]

Return reported TGI values for all items listed beneath this line.
1. CN(C)c1nc(=NCc2ccco2)ss1
2. CCc1cccc(C)c1N1C(=O)C(=O)C(c2nc3ccccc3o2)C(=O)C1=O
3. NNc1cnn(-c2ccccc2)c(=O)c1Cl
4. Cc1c(OCc2ccccc2)c(=O)ccn1CCc1c[nH]c2ccccc12
5. Cc1cc(Nc2nc(C(=O)Nc3ccccc3)nc3ccccc23)n[nH]1

1: > 55.6 µM; 2: > 100 µM; 3: > 100 µM; 4: > 100 µM; 5: > 25 µM

---

- Tested on: SK-MEL-2 melanoma
- experimental_details: NCI tumour cell line growth inhibition, 48 h
observation_type: TGI

{"columns": ["compound", "TGI"],
 "data": [
  ["Cc1ccc(NC2=NCCO2)c2c1CCC2", "48.9 µM"],
  ["O=C1C(=O)N(c2ccc(Cl)cc2)C(=O)C(=O)C1c1nc2ccccc2s1", "> 100 µM"],
  ["COc1ccc(C2OCCN2C)cc1 (stereo unspecified)", "> 100 µM"],
  ["O=c1c2ccccc2nc(-c2ccccc2)n1NC(=S)Nc1ccc(Cl)cc1", "> 100 µM"],
  ["Cc1cc(NC(=O)C2C3C=CC(O3)C2C(=O)O)no1 (stereo unspecified)", "> 100 µM"]
]}

// for each compound in input: emit TGI
1. CCOC(=O)C(NC(=O)CC)(Nc1ccc(S(=O)(=O)Nc2onc(C)c2C)cc1)C(F)(F)F (stereo unspecified)
2. CC(C)(C)CC(C)(C)NC(=S)NO
3. O=C(Sc1c(-c2ccccc2)c(=O)n(-c2ccccc2)c(=S)n1-c1ccccc1)c1cccs1
4. Cc1ccc2nc(-c3ccc(OCC(=O)N=Nc4c(O)[nH]c5ccccc45)cc3)[nH]c2c1
5. CN(C)/C=N\c1ccnc(=O)[nH]1

["> 100 µM", "> 100 µM", "> 100 µM", "14.7 µM", "> 100 µM"]

Form field: reported TGI of C#CCNC(=O)ON1C(=O)CCC1=O
> 100 µM
